test system: NCI-H187; assay: Cytotoxicity against human NCI-H187 cells by colorimetric method; type: functional, cell-based
observation type: pIC50
The read-out pIC50 is expressed as -log10 of concentration in moles per litre.

-- ask # pIC50 lookup, item Cc1c2ccncc2c(C)c2c1[nH]c1ccccc12
-- reply 5.70
